Numbers sourced from patent US12083094B2.

Test: Blood sampling for THC and CBD plasma concentration after single oral dosing
Details: dog, plasma, po
Form field: half-life (one value per entry).
Write the figure, then the unit, nothing else.

[
  {
    "Compound": "CCCCCc1cc(O)c2c(c1)OC(C)(C)[C@@H]1CCC(C)=C[C@@H]21 [THC, Δ^9-Tetrahydrocannabinol]",
    "half-life": "18.4 h"
  }
]

## Task So what's the measured half-life for this one? C=C(C)[C@@H]1CCC(C)=C[C@H]1c1c(O)cc(CCCCC)cc1O
## Result 12.6 h
